# Test system: HCC-2998 colon
# protocol details: NCI-60 one-dose screen, 48 h (100 = growth as untreated, 0 = no growth, -100 = all killed)
# conditions used: 10 µM unless noted
Compounds without any hit were thinned out: in the full panel of roughly 83,000, 20% have a hit.
readout type: growth (%)
Write the answer as a number in %, unit excluded.

Given C[C@@H]1CC[C@@H]2[C@@H]1[C@H](OC(=O)/C=C/c1ccccc1)[C@]1(CCCOCCOCCOCCOC(=O)CCCC[C@@H]3SC[C@@H]4NC(=O)N[C@@H]43)C[C@@H](OC(=O)CO)[C@@]2(C)O1 , report its growth on HCC-2998 colon.
104

Given CCN(CC)N=Nc1nn(C(=O)Nc2ccc(Cc3ccccc3)cc2)c2ccc(Cl)cc12 , report its growth on HCC-2998 colon.
43.2

Given CS(=O)(=O)c1ccc(-c2[nH]c3ccc(F)cc3c2/C=N/O)cc1 , report its growth on HCC-2998 colon.
110

Given COc1ccc(/C=C(\C#N)n2nnc3ccccc32)cc1 , report its growth on HCC-2998 colon.
-2.35

Given CCN(CC)CCOc1ccc(/C(=C(\C)c2ccc(F)c(OC)c2)c2ccc(Cl)cc2)cc1 , report its growth on HCC-2998 colon.
-33.2

Given C/C(Cc1ccc(Cl)cc1)=C(/c1ccc(Cl)cc1)c1ccc(OCCN(C)C)cc1 , report its growth on HCC-2998 colon.
1.6

Given N=C(N)c1ccc(-c2ccc(/C=C/c3ccccc3)s2)cc1 , report its growth on HCC-2998 colon.
-63.7

Given COC(=O)CNC(=O)C(=O)c1c(O)c(O)c(C(C)C)c2cc(C)c(-c3c(C)cc4c(C(C)C)c(O)c(O)c(C(=O)C(=O)NCC(=O)OC)c4c3O)c(O)c12 , report its growth on HCC-2998 colon.
33.8
